Hey, just so you know, these numbers are from ChEMBL document CHEMBL5252542.

Settings: mouse, in vivo, po, 10 mg/kg, 8 h
Would you kindly list AUC for each of these compounds?

Lookup: # lookup: AUC of COc1cc(NC(=O)c2nnn(Cc3ccc(CN4CCOCC4)cc3)c2N)nc(OC)n1
Found: 300000 ng·min/mL

Lookup: # lookup: AUC of COc1cccc(NC(=O)c2nnn(Cc3ccc(OC(F)(F)F)cc3)c2N)c1
Found: 2300 ng·min/mL

Lookup: # lookup: AUC of COc1cccc(NC(=O)c2nnn(Cc3ccc(C(C)C)cc3)c2N)c1
Found: 3200 ng·min/mL

Lookup: # lookup: AUC of COc1ncccc1-c1noc(-c2nnn(Cc3ccc(CN4CCOCC4)cc3)c2N)n1
Found: 190000 ng·min/mL

Lookup: # lookup: AUC of COc1cc(NC(=O)c2nnn(Cc3ccc(CN4CCOCC4)cc3)c2N)cc(OC)c1
Found: 370000 ng·min/mL

----------
Conditions: buffer, pH 7.4
logD less than 2 is Condition met; logD greater than or equal to 2 is Condition not met.

Lookup: Find out if reported logD for COc1cccc(NC(=O)c2nnn(CC3CCNCC3)c2N)c1 is less than 2
Found: Condition met

Lookup: Find out if reported logD for COc1cc(F)cc(NC(=O)c2nnn(Cc3ccc(CN4CCOCC4)cc3)c2N)c1 is less than 2
Found: Condition not met

Lookup: Find out if reported logD for COc1cccc(NC(=O)c2nnn(Cc3ccc(C4CC4)cc3)c2N)c1 is less than 2
Found: Condition not met

Lookup: Find out if reported logD for COc1cccc(NC(=O)c2nnn(CC3CCN(C(=O)OC(C)(C)C)CC3)c2N)c1 is less than 2
Found: Condition not met

Lookup: Find out if reported logD for COc1ncccc1-c1noc(-c2nnn(Cc3ccc(CN4CCOCC4)cc3)c2N)n1 is less than 2
Found: Condition met

Lookup: Find out if reported logD for COc1cccc(NC(=O)c2nnn(C(C)c3ccc(C(C)(C)C)cc3)c2N)c1 (configuration not stated) is less than 2
Found: Condition not met

Lookup: Find out if reported logD for COc1cc(NC(=O)c2nnn(Cc3ccc(CN4CCOCC4)cc3)c2N)ccc1F is less than 2
Found: Condition not met

Lookup: Find out if reported logD for COc1cccc(NC(=O)c2nnn(Cc3ccc(-n4cccn4)cc3)c2N)c1 is less than 2
Found: Condition not met

----------
Would you kindly list Cmax for each of these compounds?
Conditions: mouse, in vivo, po, 10 mg/kg, 24 h
Value expressed in ng/mL; do not type the unit.

Lookup: # lookup: Cmax of COc1cccc(NC(=O)c2nnn(Cc3ccc(OC(F)(F)F)cc3)c2N)c1
Found: 13

Lookup: # lookup: Cmax of COc1cc(NC(=O)c2nnn(Cc3ccc(CN4CCOCC4)cc3)c2N)nc(OC)n1
Found: 1300

Lookup: # lookup: Cmax of COc1cc(NC(=O)c2nnn(Cc3ccc(CN4CCOCC4)cc3)c2N)cc(OC)c1
Found: 1600

Lookup: # lookup: Cmax of COc1cccc(NC(=O)c2nnn(Cc3ccc(C(C)C)cc3)c2N)c1
Found: 17

Lookup: # lookup: Cmax of COc1ncccc1-c1noc(-c2nnn(Cc3ccc(CN4CCOCC4)cc3)c2N)n1
Found: 1300

----------
Settings: buffer, pH 7.4
Label rule, in plain words: logD of 2 and up is true, under 2 is false.

Lookup: Decide: is the reported value of logD for Cc1noc(C)c1-c1noc(-c2nnn(Cc3ccc(CN4CCOCC4)cc3)c2N)n1 equal to or greater than 2?
Found: true

Lookup: Decide: is the reported value of logD for Nc1c(-c2nc(-c3ccccc3)no2)nnn1Cc1ccc(CN2CCOCC2)cc1 equal to or greater than 2?
Found: true

Lookup: Decide: is the reported value of logD for COc1cccc(NC(=O)c2nnn(Cc3ccc(C#N)cc3)c2N)c1 equal to or greater than 2?
Found: true

Lookup: Decide: is the reported value of logD for COc1cccc(NC(=O)c2nnn(Cc3ccccc3)c2N)c1 equal to or greater than 2?
Found: true

Lookup: Decide: is the reported value of logD for COc1cccc(NC(=O)c2nnn(Cc3ccc(OC(F)(F)F)cc3)c2N)c1 equal to or greater than 2?
Found: true

Lookup: Decide: is the reported value of logD for COc1cccc(NC(=O)c2nnn(Cc3ccc([S+](C)[O-])cc3)c2N)c1 (centres undefined) equal to or greater than 2?
Found: false

Lookup: Decide: is the reported value of logD for COc1cnccc1-c1noc(-c2nnn(Cc3ccc(CN4CCOCC4)cc3)c2N)n1 equal to or greater than 2?
Found: false

Lookup: Decide: is the reported value of logD for COc1nnccc1-c1noc(-c2nnn(Cc3ccc(CN4CCOCC4)cc3)c2N)n1 equal to or greater than 2?
Found: false

Lookup: Decide: is the reported value of logD for COc1ccccc1-c1noc(-c2nnn(Cc3ccc(CN4CCOCC4)cc3)c2N)n1 equal to or greater than 2?
Found: true

Lookup: Decide: is the reported value of logD for COc1cccc(NC(=O)c2nnn(Cc3ccc(CN4CCOCC4)cc3)c2N)c1F equal to or greater than 2?
Found: true

Lookup: Decide: is the reported value of logD for COc1cc(NC(=O)c2nnn(Cc3ccc(CN4CCOCC4)cc3)c2N)cc(OC)c1 equal to or greater than 2?
Found: true

Lookup: Decide: is the reported value of logD for COc1cccc(NC(=O)c2nnn(CC3CCN(C(C)=O)CC3)c2N)c1 equal to or greater than 2?
Found: false
